# assayProtocol: LNP size and polydispersity index (PDI) by dynamic light scattering
# Format: physicochemical
# conditionLabel: LNP with mRNA (SEQ ID NO: 2); in nm (unit assumed)
Size below 90 gives Not fulfilled; Size at or above it gives Fulfilled.

Could you please find out whether CCCCC/C=C\C/C=C\CCCCCCCCN(CCCCCCCC(=O)OC(CCCCCCCC)CCCCCCCC)CCCOC(=O)NCCN(C)C [Lipid 270] has Size that meets 90 or exceeds it?
Fulfilled

Could you please find out whether CCCCC/C=C\C/C=C\CCCCCCCCN(CCCCCCCC(=O)OC(CCCCCCCC)CCCCCCCC)CCOC(=O)NCCN(C)C [Lipid 129] has Size that meets 90 or exceeds it?
Not fulfilled

Could you please find out whether CCCCCCCCC(CCCCCC)C(=O)OCCCCCCCCN(CCCCCCCCOC(=O)C(CCCCCC)CCCCCCCC)CCOC(=O)NCCN(C)C (stereo not drawn) [Lipid 6] has Size that meets 90 or exceeds it?
Fulfilled

Could you please find out whether CCCCC/C=C\C/C=C\CCCCCCCCN(CCCCCCCC/C=C\C/C=C\CCCCC)CCOC(=O)[C@@H](N)Cc1c[nH]cn1 [Lipid B, reference compound] has Size that meets 90 or exceeds it?
Not fulfilled

Could you please find out whether CCCCC/C=C\C/C=C\CCCCCCCCN(CCCCCC(=O)OCC(CCCCCCCC)CCCCCCCCCC)CCOC(=O)NCCN(C)C (stereo not drawn) [Lipid 75] has Size that meets 90 or exceeds it?
Not fulfilled

Could you please find out whether CCCCC/C=C\C/C=C\CCCCCCCCN(CCCCCCCC(=O)OC(CCCCCCCC)CCCCCCCC)CCOC(=O)NCCCN(CC)CC [Lipid 131] has Size that meets 90 or exceeds it?
Not fulfilled

Could you please find out whether CCCCC/C=C\C/C=C\CCCCCCCCN(CCCCCCCC/C=C\C/C=C\CCCCC)CCOC(=O)CCCN(C)C [Lipid A, reference compound] has Size that meets 90 or exceeds it?
Fulfilled

Could you please find out whether CCCCCCCCC(CCCCCC)C(=O)OCCCCCCCCN(CCCCCCCCCCC(=O)OCCCCCC)CCOC(=O)NCCN(C)C (stereo not drawn) [Lipid 43] has Size that meets 90 or exceeds it?
Not fulfilled

Could you please find out whether CCCCCCCCC(CCCCCCCC)OC(=O)CCCCCCCN(CCCCCCCCOC(=O)C(CCCCCC)CCCCCCCC)CCCOC(=O)NCCN1CCCC1 (stereo not drawn) [Lipid 350] has Size that meets 90 or exceeds it?
Fulfilled

Could you please find out whether CCCCC/C=C\CCOC(=O)CCCCCCCN(CCCCCCCC(=O)OCC/C=C\CCCCC)CCOC(=O)CCCN(C)C [Lipid C, reference compound] has Size that meets 90 or exceeds it?
Fulfilled

Could you please find out whether CCCCC/C=C\C/C=C\CCCCCCCCN(CCCCCCCC(=O)OC(CCCCCCCC)CCCCCCCC)CCOC(=O)NCCN1CCCC1 [Lipid 128] has Size that meets 90 or exceeds it?
Not fulfilled

###

Exercise: state measured Size for each of the compounds provided.
# assayProtocol: LNP size and polydispersity index (PDI) by dynamic light scattering
# Type: physicochemical
# conditionLabel: LNP with mRNA (SEQ ID NO: 2); in nm (unit assumed)
Number only, no unit.

Need Size, item CCCCCCCCC(CCCCCCCC)OC(=O)CCCCCCCN(CCCCCCCCOC(=O)C(CCCCCC)CCCCCCCC)CCCOC(=O)NCCN(C)C (stereo not drawn)
97.82

Need Size, item CCCCCCCCC(CCCCCCCC)OC(=O)CCCCCCCN(CCCCCCCCOC(=O)C(CCCCCC)CCCCCCCC)CCCOC(=O)NCCCN(C)C (stereo not drawn)
101.8

Need Size, item CCCCC/C=C\C/C=C\CCCCCCCCN(CCCCCCCC(=O)OC(CCCCCCCC)CCCCCCCC)CCCOC(=O)NCc1ncc[nH]1
97.34

###

# System: Hep G2 cells
# assayProtocol: In vitro toxicity (CellTiter-Glo cell viability), Hep G2;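 note: percent of untreated cells luminescence signal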
# Assay type: cell-based
# conditionLabel: cirRNA (SEQ ID NO: 1) LNPs; Hep G2 cells
Exercise: state measured In vitro Viability HepG2 for each of the compounds provided.
Write the answer as a number in %, unit excluded.

What measured In vitro Viability HepG2 is associated with CCCCCCCCCC(=O)OCCCCCCCN(CCCCCCCCOC(=O)C(CCCCCC)CCCCCCCC)CCCOC(=O)NCCN(C)C (stereo not drawn) on Hep G2 cells?
122

What measured In vitro Viability HepG2 is associated with CCCCCCCCCCC(CCCCCCCC)COC(=O)CCCCCN(CCCCCC(=O)OCC(CCCCCCCC)CCCCCCCCCC)CCOC(=O)NCCCN(C)C (stereo not drawn) on Hep G2 cells?
22

What measured In vitro Viability HepG2 is associated with CCCCCCCCCCC(CCCCCCCC)COC(=O)CCCCCN(CCCCCC(=O)OCC(CCCCCCCC)CCCCCCCCCC)CCCOC(=O)NCCN1CCCCCC1 (stereo not drawn) on Hep G2 cells?
63

What measured In vitro Viability HepG2 is associated with CCCCC/C=C\C/C=C\CCCCCCCCN(CCCCCCCC(=O)OC(CCCCCCCC)CCCCCCCC)CCCOC(=O)NCCN(C)C on Hep G2 cells?
95

What measured In vitro Viability HepG2 is associated with CCCCC/C=C\C/C=C\CCCCCCCCN(CCCCCCCC(=O)OC(CCCCCCCC)CCCCCCCC)CCOC(=O)NCCN1CCN(C)CC1 on Hep G2 cells?
91

What measured In vitro Viability HepG2 is associated with CCCCC/C=C\CCOC(=O)CCCCCN(CCCCCCCCOC(=O)C(CCCCCC)CCCCCCCC)CCOC(=O)NCCCN(CC)CC (stereo not drawn) on Hep G2 cells?
88

What measured In vitro Viability HepG2 is associated with CCCCC/C=C\C/C=C\CCCCCCCCN(CCCCCCCC(=O)OC(CCCCCCCC)CCCCCCCC)CCCOC(=O)NCCN1CCCC1 on Hep G2 cells?
89

What measured In vitro Viability HepG2 is associated with CCCCCCCCCC(=O)OCCCCCCCN(CCCCCCCOC(=O)CCCCCCCCC)CCOC(=O)NCCN1CCN(C)CC1 on Hep G2 cells?
99

What measured In vitro Viability HepG2 is associated with CCCCCCCCCC(=O)OCCCCCCCN(CCCCCCCCOC(=O)C(CCCCCC)CCCCCCCC)CCCOC(=O)NCCCN(CC)CC (stereo not drawn) on Hep G2 cells?
114

What measured In vitro Viability HepG2 is associated with CCCCCCCCC(CCCCCCCC)OC(=O)CCCCCCCN(CCCCCCCCOC(=O)C(CCCCCC)CCCCCCCC)CCCOC(=O)NCCN1CCN(C)CC1 (stereo not drawn) on Hep G2 cells?
92

What measured In vitro Viability HepG2 is associated with CCCCC/C=C\C/C=C\CCCCCCCCN(CCCCCCCC(=O)OC(CCCCCCCC)CCCCCCCC)CCCOC(=O)NCCCN(CC)CC on Hep G2 cells?
97

What measured In vitro Viability HepG2 is associated with CCCCCCCCCCC(CCCCCCCC)COC(=O)CCCCCN(CCCCCC(=O)OCC(CCCCCCCC)CCCCCCCCCC)CCCOC(=O)NCc1ncc[nH]1 (stereo not drawn) on Hep G2 cells?
109

What measured In vitro Viability HepG2 is associated with CCCCC/C=C\CCOC(=O)CCCCCN(CCCCCCCCOC(=O)C(CCCCCC)CCCCCCCC)CCOC(=O)NCCN(C)C (stereo not drawn) [Lipid 184] on Hep G2 cells?
91

What measured In vitro Viability HepG2 is associated with CCCCCCCCCC(=O)OCCCCCCCN(CCCCCCCCOC(=O)C(CCCCCC)CCCCCCCC)CCOC(=O)NCCCN1CCCCC1 (stereo not drawn) on Hep G2 cells?
121

What measured In vitro Viability HepG2 is associated with CCCCCCCCCCC(CCCCCCCC)COC(=O)CCCCCN(CCCCCC(=O)OCC(CCCCCCCC)CCCCCCCCCC)CCCOC(=O)NCCN1CCC1 (stereo not drawn) on Hep G2 cells?
42

###

# assayProtocol: LNP zeta potential (Zetasizer)
# Format: physicochemical
# conditionLabel: LNP with cirRNA (SEQ ID NO: 1)
# Method: Ionizable lipid, DSPC, Cholesterol and DMG-PEG 2000 were mixed at a molar ratio of 50:10:38.5:1.5 in absolute ethanol. Circular RNA and linear mRNA payloads were suspended in 25 mM Acetate Buffer (pH 4.5). […] The LNP size and polydispersity index (PDI), determined by dynamic light scattering (DLS), and zeta potential were measured by a Zetasizer machine (Malvern). […]
measureName: Zeta (mV)
Write the answer as a number in mV, unit excluded.

Need Zeta (mV), item CCCCCCCCCCC(CCCCCCCC)COC(=O)CCCCCN(CCCCCC(=O)OCC(CCCCCCCC)CCCCCCCCCC)CCOC(=O)NCc1ncc[nH]1 (stereo not drawn)
−5.824

Need Zeta (mV), item CCCCCCCCC(CCCCCCCC)OC(=O)CCCCCCCN(CCCCCCCCOC(=O)C(CCCCCC)CCCCCCCC)CCCOC(=O)NCCN1CCCCCC1 (stereo not drawn)
−2.263

Need Zeta (mV), item CCCCCCCCCCC(CCCCCCCC)COC(=O)CCCCCN(CCCCCC(=O)OCC(CCCCCCCC)CCCCCCCCCC)CCCOC(=O)NCCN1CCCCC1 (stereo not drawn)
0.1617

Need Zeta (mV), item CCCCCCCCCC(=O)OCCCCCCCN(CCCCCCCCOC(=O)C(CCCCCC)CCCCCCCC)CCOC(=O)NCCCN(CC)CC (stereo not drawn)
13.62

Need Zeta (mV), item CCCCCCCCC(CCCCCC)C(=O)OCCCCCCCCN(CCCCCCCCOC(=O)C(CCCCCC)CCCCCCCC)CCCOC(=O)NCCCN(CC)CC (stereo not drawn)
9.074

Need Zeta (mV), item CCCCCCCOC(=O)CCCCCCCCCN(CCCCCCCCCC(=O)OCCCCCCC)CCOC(=O)NCCCN(CC)CC
10.84

Data provenance is patent US12691070B2.
